Numbers sourced from ChEMBL document CHEMBL3352079.

Known clearance of a selection of compounds
experiment: Clearance in CD-1 mouse at 3 mg/kg, iv; assay type: ADME, organism-based; set-up: dose 3 mg/kg, route intravenous; details: in vivo
State the answer as a number, implicitly in mL/min/kg.

1. CN1CCc2ccc(Nc3ncc4c(=O)n(-c5ccccc5Cl)c5nccn5c4n3)cc2C1 = 36.7
2. CN1CCN(c2ccc(Nc3ncc4c(=O)n(-c5c(Cl)cccc5Cl)c5nccn5c4n3)cc2)CC1 = 33.3

# evaluate next
[ask] Quick one: give measured clearance for `CN1CCN(c2ccc(Nc3ncc4c(=O)n(-c5ccccc5Cl)c5nccn5c4n3)cc2)CC1`
[reply] 30

---

test: Drug uptake in human NCI-H1299 cells xenografted in mouse assessed in tumor at 100 mg/kg, po qd after 10 hrs; format: ADME, organism-based, Neoplasm; parameters: dose 100 mg/kg, route oral; conditions: read-out: Drug uptake
EXPERIMENTAL_READOUT: concentration at 10 h (µM)
The answer is to be given in µM; state only the numeric part.

[ask] Answer with reported concentration at 10 h of `CN1Cc2cc(Nc3ncc4c(=O)n(-c5c(F)cccc5Cl)c5nccn5c4n3)ccc2C(C)(C)C1`
[reply] 53.4
